Collected set of IC50 measured with Tyrosine-protein kinase receptor UFO (Homo sapiens) across studies.
// return numeric value only (unit: nM, not printed)

Check out these entries, answers already filled in.
[
  {
    "compound": "COc1cc2ncnc(Oc3ccc(NC(=O)c4cn(C5CC5)c5cc(N6CCNCC6)c(F)cc5c4=O)cc3F)c2cc1OC",
    "measurement-unit": "nM",
    "obs-value": 20
  },
  {
    "compound": "CCOc1cc2ncnc(Oc3ccc(NC(=O)c4c(C)n(C)c5ccc(OC(F)(F)F)cc5c4=O)cc3F)c2cc1OC",
    "measurement-unit": "nM",
    "obs-value": 2.6
  },
  {
    "compound": "Cc1c(C(=O)Nc2ccc(Oc3ncnc4[nH]cc(-c5ccccc5)c34)c(F)c2)c(=O)c2cc(C3CCCC3)ccc2n1C",
    "measurement-unit": "nM",
    "obs-value": 195
  }
]

--- query ---
Query CC(C)c1cc(Nc2nc(N3CCCC3C(=O)Nc3ccc(F)nc3)nc3c2CCC3)n[nH]1 (single isomer, unassigned) yields IC50 of 9.76

----------
Collected set of IC50 measured with Tyrosine-protein kinase receptor UFO (Homo sapiens, UniProt P30530) across studies.

[
  {
    "compound": "COC[C@H](C)Nc1ncc2c(-c3cnn(Cc4nnc(C)s4)c3)cc([C@H]3CC[C@H](O)CC3)n2n1",
    "IC50": "≤ 100 nM"
  },
  {
    "compound": "COC[C@H](C)Nc1ncc2c(OC3CCOCC3)ncc(-c3cccc(C(N)=O)c3)c2n1",
    "IC50": "1000 to 10000 nM"
  },
  {
    "compound": "CC(C)(C)OC(=O)N1CCC(n2cc(-c3cnc(N)c(-c4nnc(-c5nc(C(F)(F)F)cs5)o4)c3)cn2)CC1",
    "IC50": "< 500 nM"
  }
]

--- query ---
# IC50 measured on Tyrosine-protein kinase receptor UFO (Homo sapiens, UniProt P30530) for item CCCC(C)Nc1ncc2c(NC3CCN(C(=O)C(F)(F)F)CC3)ncc([C@H]3CC[C@H](O)CC3)c2n1 (stereo partly shown) = 100 to 1000 nM

----------
Collected set of IC50 measured with UniProt P30530 across studies.

[
  {
    "structure-smiles-string": "CC[C@H](C)Nc1ncc2c(=O)n(C3CCOCC3)cc([C@H]3CC[C@H](O)CC3)c2n1",
    "property-label": "IC50",
    "obs-value": "100 to 1000 nM"
  },
  {
    "structure-smiles-string": "CC[C@H](C)Nc1ncc2c(=O)n([C@H]3CC[C@H](N)CC3)cc([C@H]3CC[C@H](O)CC3)c2n1",
    "property-label": "IC50",
    "obs-value": "100 to 1000 nM"
  },
  {
    "structure-smiles-string": "CC(=O)Nc1cc(Oc2ccc(NC(=O)c3c4n(n(-c5ccccc5)c3=O)CCOC4)cc2)ccn1",
    "property-label": "IC50",
    "obs-value": "49 nM"
  },
  {
    "structure-smiles-string": "CCc1nc(C(N)=O)c(Nc2ccc3c(c2)OC[C@@H]2CN(C)CCN32)nc1NC1CCOCC1",
    "property-label": "IC50",
    "obs-value": "< 10 nM"
  },
  {
    "structure-smiles-string": "CC(C)(C)c1ccc(-c2nnc(-c3cc(-c4cn[nH]c4)cnc3N)o2)cc1",
    "property-label": "IC50",
    "obs-value": "1000 to 10000 nM"
  },
  {
    "structure-smiles-string": "COc1cc2nccc(Oc3ccc(NC(=O)c4cn(C)c(C)c(C5CCCC5)c4=O)cc3F)c2nc1OC",
    "property-label": "IC50",
    "obs-value": "≤ 100 nM"
  },
  {
    "structure-smiles-string": "COc1cc2nccc(Oc3ccc(NC(=O)c4c(C)nc(C)c(-c5ccc(F)cn5)c4O)cc3)c2nc1OC",
    "property-label": "IC50",
    "obs-value": "≤ 100 nM"
  },
  {
    "structure-smiles-string": "C[C@@H](CC(F)(F)F)Nc1ncc2c(-c3ccc([S@](C)(=N)=O)nc3)cc([C@H]3CC[C@H](O)CC3)n2n1",
    "property-label": "IC50",
    "obs-value": "≤ 100 nM"
  },
  {
    "structure-smiles-string": "COc1cc2nccc(Oc3ccc(NC(=O)c4cc(S(C)(=O)=O)n(-c5ccc(F)cc5)n4)cc3)c2cc1OC",
    "property-label": "IC50",
    "obs-value": "< 500 nM"
  },
  {
    "structure-smiles-string": "C[C@@H](COC(F)F)Nc1ncc2c(-c3ccnc(N4CCO[C@@H](C(C)(C)O)C4)c3)cc([C@H]3CC[C@H](O)CC3)n2n1",
    "property-label": "IC50",
    "obs-value": "≤ 100 nM"
  }
]

# IC50 measured on UniProt P30530 for item CCCCC[C@H](C)Nc1ncc2c(-c3ccc(S(=O)(=O)N4CCOCC4)cc3)cc([C@H]3CC[C@H](O)CC3)n2n1 = 100 to 1000 nM

# IC50 measured on UniProt P30530 for item CC[C@H](C)Nc1ncc2c(C3CCOCC3)cc([C@H]3CC[C@H](O)CC3)n2n1 = 100 to 1000 nM

----------
Collected set of IC50 measured with Tyrosine-protein kinase receptor UFO (Homo sapiens, UniProt P30530) across studies.

[
  {
    "structure-smiles-string": "C[C@@H](CC(F)(F)F)Nc1ncc2c(C3=CCN(C(=O)OC(C)(C)C)CC3)cc([C@H]3CC[C@H](O)CC3)n2n1",
    "property-label": "IC50",
    "obs-value": "≤ 100 nM"
  },
  {
    "structure-smiles-string": "COc1cc2nccc(Oc3ccc(NC(=O)c4c(C)nc(C)c(C(=O)N(C)C)c4O)cc3F)c2nc1OC",
    "property-label": "IC50",
    "obs-value": "≤ 100 nM"
  },
  {
    "structure-smiles-string": "Cc1ccc2c(c1)c(=O)c(C(=O)Nc1ccc(Oc3ncnc4[nH]cc(-c5ccccc5)c34)c(F)c1)cn2C",
    "property-label": "IC50",
    "obs-value": "152 nM"
  },
  {
    "structure-smiles-string": "CC[C@@H](C)Nc1ncc2c(OC3CC(C)(C)N(C)C(C)(C)C3)ncc([C@H]3CC[C@H](O)CC3)c2n1",
    "property-label": "IC50",
    "obs-value": "≤ 100 nM"
  },
  {
    "structure-smiles-string": "CC(C)Nc1ncc2c(OC3CCOCC3)ncc(-c3cccc(S(=O)(=O)C(C)C)c3)c2n1",
    "property-label": "IC50",
    "obs-value": "100 to 1000 nM"
  },
  {
    "structure-smiles-string": "N#Cc1ccc(Nc2ncc3c(OC4CCNCC4)ncc([C@H]4CC[C@H](O)CC4)c3n2)cc1",
    "property-label": "IC50",
    "obs-value": "≤ 100 nM"
  },
  {
    "structure-smiles-string": "COC[C@H](C)Nc1ncc2c(-c3cnn(C4COC4)c3)cc([C@H]3CC[C@](O)(C(C)C)CC3)n2n1",
    "property-label": "IC50",
    "obs-value": "≤ 100 nM"
  },
  {
    "structure-smiles-string": "COc1cc2nccc(Oc3cnc(NC(=O)c4nn(C5CCOCC5)cc(-c5ccc(C)cc5)c4=O)nc3)c2cc1OC",
    "property-label": "IC50",
    "obs-value": "7 nM"
  }
]

--- query ---
Query Cc1ccc(-c2cn(C3CCOCC3)nc(C(=O)Nc3ccc(Oc4ccnc5cc6c(cc45)OCO6)cn3)c2=O)cc1 yields IC50 of 28 nM

----------
pIC50: −log10 of the molar value.
Collected set of pIC50 measured with Tyrosine-protein kinase receptor UFO (Homo sapiens, UniProt P30530) across studies.

Check out these entries, answers already filled in.
[
  {
    "molecule": "CCCCCCCCCCCCN1CCC(n2cc(-c3cnc(N)c(-c4nnc(-c5c(Cl)cccc5Cl)o4)c3)cn2)CC1",
    "pIC50": "5.00 to 6.00"
  },
  {
    "molecule": "O[C@H]1CC[C@H](c2cnc(OC3CCOCC3)c3cnc(N[C@H]4CCC(F)(F)C4)nc32)CC1",
    "pIC50": "6.00 to 7.00"
  },
  {
    "molecule": "C[C@@H](CC(F)(F)F)Nc1ncc2c(-c3cnn(C4COC4)c3)cc([C@H]3CC[C@H](O)CC3)n2n1",
    "pIC50": "≥ 7.00"
  }
]

--- query ---
Query CCCC(C)Nc1ncc2c(=O)n(C3CCN(C4COC4)CC3)cc([C@H]3CC[C@H](O)CC3)c2n1 (stereo partly shown) yields pIC50 of 6.00 to 7.00
